Molecular target: Sialate O-acetylesterase (Homo sapiens)
Experiment: blockers of sialate O-acetylesterase activity-probe labeling – biochemical, fluorescence polarization, FP-Rh probe, 1536-well HTS, primary screen (AID 1053197);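 also: 0% = plate median of compound wells and 100% = probe without SIAE protein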
Conditions: SIAE FP-Rh probe binding, at 9.66 µM, stronger effect = higher value
In all, about 370,000 compounds went through this assay and about 2,600 (0.7%) were called active. Shown is part of a subset that was picked to be rich in actives.
Listing: inhibition of selected compounds
Field: numeric (%). Do not append units.

CCN(CC)C(=O)CC[C@H]1CC[C@]2(CCCN(Cc3ccc(Cl)cc3)C2)O1 = -1

Give me measured inhibition, please, for this compound: CCC(=O)Nc1ccc2c(c1)C(=O)N(C)[C@@H]1CC[C@@H](CC(=O)NCCc3ccccc3)O[C@H]1CO2
1.28

Give me measured inhibition, please, for this compound: COC(=O)[C@H](C(C)C)N(CCCc1cn(Cc2ccccc2)nn1)S(=O)(=O)c1ccc(F)cc1Br
-3.32

----------
Listing: inhibition of selected compounds
Molecular target: Sialate O-acetylesterase (Homo sapiens) (UniProt Q9HAT2)
Sequence (Q9HAT2 whole entry, looked up): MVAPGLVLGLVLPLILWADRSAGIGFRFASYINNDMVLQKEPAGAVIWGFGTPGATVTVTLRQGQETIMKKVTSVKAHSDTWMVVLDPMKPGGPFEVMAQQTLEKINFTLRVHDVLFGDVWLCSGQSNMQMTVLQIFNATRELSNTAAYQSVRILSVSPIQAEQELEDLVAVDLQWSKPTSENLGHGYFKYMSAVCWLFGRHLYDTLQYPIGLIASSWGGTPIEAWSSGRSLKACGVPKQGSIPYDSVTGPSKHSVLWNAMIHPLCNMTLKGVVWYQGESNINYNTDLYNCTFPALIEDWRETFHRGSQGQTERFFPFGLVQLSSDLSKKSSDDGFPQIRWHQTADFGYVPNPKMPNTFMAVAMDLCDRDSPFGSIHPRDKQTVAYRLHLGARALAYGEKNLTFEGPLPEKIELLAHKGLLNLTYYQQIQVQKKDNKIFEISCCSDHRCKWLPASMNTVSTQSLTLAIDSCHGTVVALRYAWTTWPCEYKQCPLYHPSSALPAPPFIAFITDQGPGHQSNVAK
Assay: blockers of sialate O-acetylesterase activity-probe labeling – biochemical, fluorescence polarization, FP-Rh probe, 1536-well HTS, primary screen (AID 1053197);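 also: 0% = plate median of compound wells and 100% = probe without SIAE protein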
Settings: SIAE FP-Rh probe binding, at 9.66 µM, stronger effect = higher value
Out of some 370,000 compounds screened, about 2,600 (0.7%) were called active. What follows is part of a selection rich in actives, with near analogues and random picks from the rest.
Field: numeric (%). Do not append units.

Example entries and their recorded answers appear below.
CC(C)=CCc1ccc(O)c(=O)cc1C(C)C = 6.87
NS(=O)(=O)c1ccc(NC(=S)NNC(=O)c2cccs2)cc1 = 4.71
O=C(NC(=S)Nc1ccc(NC(=O)c2cccs2)cc1)c1ccc([N+](=O)[O-])cc1 = 26.9
O=C(CSc1nc2ccccc2s1)NN=Cc1ccc(O)cc1O = 7.21

Give me measured inhibition, please, for this compound: O=C(Nc1cc(Cl)cc(Cl)c1)OCCN1CCCC12CCC(c1ccccc1)CC2 (stereo unspecified)
-10.1

Give me measured inhibition, please, for this compound: O=C(NC1CCCCN(Cc2cccc(C(F)(F)F)c2)C1=O)c1ccccc1I (stereo unspecified)
8.59

----------
Target: Sialate O-acetylesterase (Homo sapiens) (UniProt Q9HAT2)
Assay: blockers of sialate O-acetylesterase activity-probe labeling – biochemical, fluorescence polarization, FP-Rh probe, 1536-well HTS, primary screen (AID 1053197);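 also: 0% = plate median of compound wells and 100% = probe without SIAE protein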
Settings: SIAE FP-Rh probe binding, at 9.66 µM
Out of some 370,000 compounds screened, about 2,600 (0.7%) were called active.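 The calls were made as follows: active = inhibition above a cutoff: mean of compounds within the control limits plus 3 SD of those (cut at about 17% in these data); inactive = the rest.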 For the sample, actives were picked, then their nearest neighbours and some compounds at random.
Please answer using one outcome listed in active, inactive

As a guide, the following entries are already answered.
Cc1ccc(Cn2cc(COC(=O)N(C)Cc3ccccc3)nn2)cc1 = inactive
c1ccc(CNCc2ccc(CNCc3ccccc3)cc2)cc1 = inactive

Any idea what this test logged for CC(=O)Nc1ccc(S(=O)(=O)Nc2ccc(N3CCCCC3)cc2)cc1 ?
active

Any idea what this test logged for O=C(NC1CCCC1)C1CSCCS(=O)(=O)N1Cc1ccccc1 (stereo unspecified) ?
inactive

Any idea what this test logged for CC(=O)Nc1ccc(S(=O)(=O)N2CCN(C3CCCCCCC3)CC2)cc1 ?
inactive

Any idea what this test logged for O=C(COc1ccc(Cl)cc1)NCCSc1ccccc1 ?
inactive

Any idea what this test logged for CC(CCN1CCC(C(O)(c2ccccc2)c2ccccc2)CC1)Oc1ccc(Cl)cc1 (stereo unspecified) ?
inactive

Any idea what this test logged for Oc1ccc(CNc2ccccc2O)cc1 ?
active

Any idea what this test logged for Cc1ccc(NC(=O)Nc2cc(C)nn2-c2ccccc2)cc1 ?
inactive

Any idea what this test logged for Nn1c(SCC(=O)Nc2ccc(S(N)(=O)=O)cc2)nnc1-c1n[nH]c2c1CCC2 ?
inactive

Any idea what this test logged for Cc1ccccc1OCC(=O)NCC(=O)OCC(=O)c1ccc2ccccc2c1 ?
inactive

Data origin, for the record: PubChem BioAssay AID1053197
